- Method summary: Induction of IL2-stimulated human PBMC-derived Vgamma9Vdelta2 T cells proliferation using FITC-anti-human pan gamma delta TCR/PE-CD3+ antibody staining preincubated for 3 days followed by 11 days incubation post compound washout measured after 14 days by flow cytometry
- Type: functional, tissue-based
- Recorded conditions: Vgamma9Vdelta2 T cell
Endpoint name: EC50 (nM)
Numbers only, in nM.

Consider the reported EC50 for these molecules:
1. CC(=O)OC/C(C)=C/CCP(=O)(OCOC(=O)C(C)(C)C)OCOC(=O)C(C)(C)C :: 0.92
2. COP(=O)(CC/C=C(\C)COC(C)=O)Oc1ccccc1 (stereo not given) :: 980

Report EC50 for each item below.
1. COC(=O)CNP(=O)(CC/C=C(\C)COC(C)=O)Oc1ccccc1 (stereo not given)
2. COC(=O)[C@H](C)NP(=O)(CC/C=C(\C)COC(C)=O)Oc1ccccc1 (stereo not given in full)
3. COC(=O)[C@H](C)NP(=O)(OC/C=C(\C)COC(C)=O)Oc1ccccc1 (stereo not given in full)

A)
1. 0.82
2. 0.12
3. 110
